Test system: P. falciparum Dd2 (PfLuc) line expressing firefly luciferase, asexual blood stage
Assay Explanation: microbe, parasite or virus in culture
Assay type: cell-based, Plasmodium falciparum
Experimental Conditions: Plasmodium falciparum, DD2; 11-pt dose response, 96hr; read-out: CDD P. falciparum Luciferase ABS 11-pt Reconfirmation Dose Response (96hr): Maximum inhibition (%)
# Emax listing for each entry below

# count of solved cases: 4
NC1CCc2nc(-c3cccnc3)nc(Nc3ccc(F)cc3)c2C1 (centres unmarked) :: 100%
COc1ccc(C(C)NCc2ccsc2)cc1Cn1cccn1 (centres unmarked) :: 68.9%
Cc1cc(C)cc(CN2C[C@H]3COC[C@H](N4CCN(C)CC4)[C@H]3C2)c1 :: 97.2%
Oc1cccc2ccc(CN3CCC4(CCNCC4)C3)nc12 :: 101%

Entry Cc1nc[nH]c1CN(C)CC1CCCN(CCc2ccc(Cl)cc2)C1 (centres unmarked) under P. falciparum Dd2 (PfLuc) line expressing firefly luciferase, asexual blood stage had Emax of 99.9%

---

Study Target: recombinant firefly luciferase (Photinus pyralis, UniProt P08659)
Sequence (P08659 whole entry): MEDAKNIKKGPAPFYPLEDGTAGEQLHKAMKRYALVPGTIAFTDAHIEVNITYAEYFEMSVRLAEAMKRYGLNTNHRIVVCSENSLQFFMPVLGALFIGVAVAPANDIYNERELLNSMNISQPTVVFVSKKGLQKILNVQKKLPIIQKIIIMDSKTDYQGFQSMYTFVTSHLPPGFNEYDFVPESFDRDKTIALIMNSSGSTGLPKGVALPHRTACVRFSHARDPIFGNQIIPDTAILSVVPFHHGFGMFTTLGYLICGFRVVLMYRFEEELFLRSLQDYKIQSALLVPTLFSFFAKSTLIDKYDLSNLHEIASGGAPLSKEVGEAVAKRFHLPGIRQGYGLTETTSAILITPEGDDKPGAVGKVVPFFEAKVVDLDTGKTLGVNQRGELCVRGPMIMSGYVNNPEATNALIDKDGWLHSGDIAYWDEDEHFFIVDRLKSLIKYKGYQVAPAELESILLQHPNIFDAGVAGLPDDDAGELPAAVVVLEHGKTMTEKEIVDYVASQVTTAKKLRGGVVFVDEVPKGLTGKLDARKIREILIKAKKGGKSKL
Assay Explanation: biochemical
Experimental Conditions: dose response, maximum inhibition; read-out: rLuc inhibition dose response: Maximum inhibition (%)
Experimental Readout: Emax (%)
Dear colleague, please return just the value in %, with no unit written.

# count of solved cases: 4
O=C(c1ccc(Br)o1)N1CCN(Cc2ccc(OC(F)(F)F)cc2)CC1 [UCSD-0819339] :: 10.9
Nc1nc(CCC(=O)N2CCOC(CC3CCCCC3)C2)cs1 (centres unmarked) [UCSD-0838977] :: 7.71
CC(=O)c1ccc(N2CCC(CO)(CCOc3ccccc3)CC2)nc1 [UCSD-0839049] :: 13.2
Cc1ccc(-c2ccc(C3CNCCO3)nc2)cc1 (centres unmarked) [UCSD-0802459] :: 88.3

Entry Cc1csc2ncnc(N3CCC(Cn4cc(C(C)(C)O)nn4)CC3)c12 [UCSD-0835726] under recombinant firefly luciferase (Photinus pyralis, UniProt P08659) had Emax of 5.67

---

System: P. falciparum Dd2 (PfLuc) line expressing firefly luciferase, asexual blood stage
Assay Explanation: microbe, parasite or virus in culture
Format: cell-based, Plasmodium falciparum
Experimental Conditions: Plasmodium falciparum, DD2; 11-pt dose response, 96hr; read-out: CDD P. falciparum Luciferase ABS 11-pt Reconfirmation Dose Response (96hr): Maximum inhibition (%)
Experimental Readout: Emax (%)
Dear colleague, please return just the value in %, with no unit written.

# count of solved cases: 5
Cc1ccsc1CN(Cc1cccnc1)C1CC(C)(C)NC(C)(C)C1 [DDD01060982] :: 95.6
CN1CCC(O)(CNCc2ccc(F)c(C(F)(F)F)c2)CC1 [DDD01065665] :: 88.8
Cc1cc(C)c(CNCC(O)c2ccc(F)c(F)c2)c(C)c1 (stereo not shown) [DDD01065539] :: 100
Fc1cccc(CN2CCC(c3cc4ncccc4cn3)CC2)c1F [DDD01058754] :: 99.9
Cc1cc(Br)cnc1NCCN1CCC(N(C)C)CC1 [DDD01079597] :: 99.5

Per the record, CC(NCC1CCN(CCO)CC1)c1ccc(C(F)(F)F)cc1 (stereo not shown) [DDD01073719] has Emax of 98.9

Per the record, Cc1ncc(CN(C)C2CCCN(CCc3ccccc3)C2)n1C (stereo not shown) [DDD01244648] has Emax of 88.7

Per the record, COc1cccc(CNCc2ccccc2Cl)c1O [DDD01038247] has Emax of 96.2

Per the record, O=C(c1ccccc1)C1CCN(Cc2cc3c(cc2O)CCC3)CC1 [DDD01073482] has Emax of 99.4

Per the record, Cc1cc(F)ccc1N1CCC(N2C[C@@H](CN(C)C)[C@@H](CO)C2)CC1 [DDD01253692] has Emax of 100

Per the record, Oc1ccc(Cl)cc1CNCc1cccc(C(F)(F)F)c1 [DDD01038245] has Emax of 79.2

---

Test system: P. falciparum Dd2 (PfLuc) line expressing firefly luciferase, asexual blood stage
Assay Explanation: microbe, parasite or virus in culture
Format: cell-based, Plasmodium falciparum
Experimental Conditions: Plasmodium falciparum, DD2, read-out: CDD P. falciparum Luciferase ABS 11-pt Reconfirmation Dose Response (48hr): IC50 (μM); 11-pt dose response, 48hr
# if measured IC50 < 3 µM: 1.0  # else: 0.0

Worked set:
CC(NCC1CCN(CCO)CC1)c1ccc(C(F)(F)F)cc1 (stereo not shown) :: 0.0
CCc1[nH]c2c(CNc3nc(C)cc(NC)n3)cc(C)cc2c1C :: 1.0
COc1ccc(C(C)NCc2ccsc2)cc1Cn1cccn1 (stereo not shown) :: 0.0
Clc1ccccc1C1(c2ccnc(C3CCCC3)n2)CCNCC1 :: 0.0
c1cc2c(cc1C1(CNC3=NCCN3)CCCC1)OCCO2 :: 0.0

input: Please state whether IC50 is below 3 µM for "COc1ccc(NC(=O)Cn2nc(C)c(C(C)=O)c2C)cc1"
output: 1.0

input: Please state whether IC50 is below 3 µM for COc1cccc(CNC(CN2CCN(C)CC2)c2ccccc2)c1 (stereo not shown)
output: 1.0

input: Please state whether IC50 is below 3 µM for Nc1nc2c(c(N3CCCC(c4nnc5ccccn45)C3)n1)CCNC2 (stereo not shown)
output: 0.0

input: Please state whether IC50 is below 3 µM for "CN(Cc1ccsc1)c1nc(-c2ccccn2)nc2c1CCNCC2"
output: 1.0

input: Please state whether IC50 is below 3 µM for "CN(C)[C@@H]1CCN(c2ncccn2)[C@H]1Cc1ccccc1"
output: 0.0

---

Test system: P. falciparum Dd2 (PfLuc) line expressing firefly luciferase, asexual blood stage
Assay Explanation: microbe, parasite or virus in culture
Format: cell-based, Plasmodium falciparum
Experimental Conditions: Plasmodium falciparum, DD2, read-out: CDD P. falciparum Luciferase ABS 11-pt Reconfirmation Dose Response (48hr): IC50 (μM); 11-pt dose response, 48hr
Experimental Readout: IC50 (µM)
Dear colleague, please return just the value in µM, with no unit written.

Cc1cc2nc(-c3cn(C4CCNCC4)nn3)[nH]c2cc1C :: 2.08

Entry CCN1CCC2(CC1)CC(NCc1cccs1)c1ccccc1O2 (centres unmarked) under P. falciparum Dd2 (PfLuc) line expressing firefly luciferase, asexual blood stage had IC50 of 2.44

Entry CC(C)n1ccnc1C1CCCN(c2ccnc3ccccc23)C1 (centres unmarked) under P. falciparum Dd2 (PfLuc) line expressing firefly luciferase, asexual blood stage had IC50 of 2.09

Entry Cc1ccc(-c2ccc(C3CNCCO3)nc2)cc1 (centres unmarked) under P. falciparum Dd2 (PfLuc) line expressing firefly luciferase, asexual blood stage had IC50 of 0.533

Entry "Cc1c(C(=O)N2CCC(N3CCCCC3)CC2)n(C)c2ccc(Cl)cc12" under P. falciparum Dd2 (PfLuc) line expressing firefly luciferase, asexual blood stage had IC50 of 3.56

---

Assay Explanation: HepG2 cytotoxicity screening (CellTiter-Glo)
Experimental Conditions: human, uninfected HepG2-A16-CD81 (EGFP) hepatocytes
pIC50: −log10 of the molar value.
# pIC50 listing for each entry below

# count of solved cases: 5
CC(C)Cn1ccc2c(NC(=O)c3n[nH]c4c3CCC4)cccc21 :: < 4.60
Cc1ncc(CN2CCOC(c3ccc(-c4ccccc4F)cn3)C2)s1 (stereo not drawn) :: < 4.60
COc1cc(CN(C)C(=O)Cc2c(C)nn(C)c2C)ccc1OC(F)F :: < 4.60
CC(=O)c1ccc(N2CCC(CO)(CCOc3ccccc3)CC2)nc1 :: < 4.60
Cc1ccc(CN2CCCC3(CCN(Cc4ccoc4)CC3)C2)cc1 :: 4.36

Per the record, "CCc1c(C)nc(-n2nc(C3CC3)cc2NC(C)=O)[nH]c1=O" has pIC50 of < 4.60

Per the record, "Cc1nc(N2CC[C@@H](NC(=O)c3cnccn3)[C@H](O)C2)c2ccsc2n1" has pIC50 of < 4.60

Per the record, "COC(=O)CSCc1noc(-c2ccc(C)cc2)n1" has pIC50 of < 4.60

Per the record, "Cc1cc(CN2CCN(C(c3ccccc3)c3ccccc3)CC2)no1" has pIC50 of < 4.60

---

System: P. falciparum Dd2 (PfLuc) line expressing firefly luciferase, asexual blood stage
Assay Explanation: microbe, parasite or virus in culture
Assay type: cell-based, Plasmodium falciparum
Experimental Conditions: Plasmodium falciparum, DD2, read-out: CDD P. falciparum Luciferase ABS 11-pt Reconfirmation Dose Response (48hr): IC50 (μM); 11-pt dose response, 48hr
Experimental Readout: IC50 (µM)
Dear colleague, please return just the value in µM, with no unit written.

Fc1cccc(F)c1Cn1c(C2CCNCC2)cc2cccnc21 :: 1.51
Cc1cc(C)n(C2CN(CC(O)c3cc(F)ccc3F)C2)n1 (centres unmarked) :: 1.46
COCCCN1CCCN(C(C)C(=O)Nc2cccc(I)c2)CC1 (centres unmarked) :: 2.64
Fc1cnc(N2CCCC3(CCN(Cc4ccsc4)C3)C2)nc1 (centres unmarked) :: 2.31
CCOc1cccc(CN2CCCC(Nc3ccc(F)cc3)C2)c1O (centres unmarked) :: 1.43

Per the record, CC(C)c1nn(C)c(Cl)c1CNCC(O)c1cccc(F)c1 (centres unmarked) has IC50 of 3.48

Per the record, OC(CNCc1ccccc1C(F)(F)F)c1ccccc1 (centres unmarked) has IC50 of 4.82

Per the record, "Cc1cccc(NC(=O)c2cccc(OCc3nnnn3C)c2)n1" has IC50 of 0.916

Per the record, "COc1ccc(-c2c(C)nn3c(=N)c(C#N)n[nH]c23)cc1OC" has IC50 of 1.18

Per the record, "CN(CCO)C[C@@H]1CN(Cc2ccccc2-c2ccccc2)C[C@@H]1CO" has IC50 of 8.14

Per the record, "Cc1ccc(C)c(OCCNC(=O)[C@@H]2CCCCN2)c1" has IC50 of 6.36

Per the record, "c1ccc(Sc2ccc3c(c2)OCO3)c(CNC2=NCCN2)c1" has IC50 of 7.86
